Assay: Half life in BALB/c mouse at 5 mg/kg
Format: ADME, organism-based
Set-up: dose 5 mg/kg
Conditions: in vivo
measuredParameter: half-life (h)
Numbers only; they are read as h.

Problem: Which value of half-life has been reported for C=C1C[C@@H]2CC[C@@]34C[C@H]5O[C@H]6[C@@H](O3)[C@H]3O[C@H](CC[C@@H]3O[C@H]6[C@H]5O4)CC(=O)C[C@@H]3[C@@H](OC)[C@@H](CC(=O)CN4CCOCC4)O[C@H]3C[C@H]3O[C@@H](CC[C@@H]1O2)C[C@@H](C)C3=C in the records?
Result: 1.7

Problem: // returns reported half-life for input C=C1C[C@@H]2CC[C@@]34C[C@H]5O[C@H]6[C@@H](O3)[C@H]3O[C@H](CC[C@@H]3O[C@H]6[C@H]5O4)CC(=O)C[C@@H]3[C@@H](OC)[C@@H](C[C@@H](CN4CCOCC4)OC)O[C@H]3C[C@H]3O[C@@H](CC[C@@H]1O2)C[C@@H](C)C3=C
Result: 0.9

Problem: Using the record for C=C1C[C@@H]2CC[C@@]34C[C@H]5O[C@H]6[C@@H](O3)[C@H]3O[C@H](CC[C@@H]3O[C@H]6[C@H]5O4)CC(=O)C[C@@H]3[C@@H](OC)[C@@H](CCNCC(F)F)O[C@H]3C[C@H]3O[C@@H](CC[C@@H]1O2)C[C@@H](C)C3=C , report its half-life.
Result: 4.1

###

Test: Volume of distribution at steady state in BALB/c mouse at 5 mg/kg, iv
Format: ADME, organism-based
Design: dose 5 mg/kg, route intravenous
Details: in vivo, read-out: Vdss
Would you kindly list Vd for each of these compounds?
Write the value in L/kg as a bare number.

Problem: Would you mind telling me what Vd value was observed for C=C1C[C@@H]2CC[C@@]34C[C@H]5O[C@H]6[C@@H](O3)[C@H]3O[C@H](CC[C@@H]3O[C@H]6[C@H]5O4)CC(=O)C[C@@H]3[C@@H](OC)[C@@H](CCNCC(F)F)O[C@H]3C[C@H]3O[C@@H](CC[C@@H]1O2)C[C@@H](C)C3=C ?
Result: 4.78

Problem: Which Vd value is on record for C=C1C[C@@H]2CC[C@@]34C[C@H]5O[C@H]6[C@@H](O3)[C@H]3O[C@H](CC[C@@H]3O[C@H]6[C@H]5O4)CC(=O)C[C@@H]3[C@@H](OC)[C@@H](CC(=O)CN4CCOCC4)O[C@H]3C[C@H]3O[C@@H](CC[C@@H]1O2)C[C@@H](C)C3=C ?
Result: 3.64

Problem: // returns reported Vd for input C=C1C[C@@H]2CC[C@@]34C[C@H]5O[C@H]6[C@@H](O3)[C@H]3O[C@H](CC[C@@H]3O[C@H]6[C@H]5O4)CC(=O)C[C@@H]3[C@@H](OC)[C@@H](C[C@@H](CN4CCOCC4)OC)O[C@H]3C[C@H]3O[C@@H](CC[C@@H]1O2)C[C@@H](C)C3=C
Result: 0.92

###

Assay: Clearance in BALB/c mouse at 10 mg/kg, iv
Type: ADME, organism-based
Design: dose 10 mg/kg, route intravenous
Conditions: in vivo
measuredParameter: clearance (mL/min/kg)
Output spec: scalar in mL/min/kg, unitless text.

Problem: Data request, read-out clearance, for C=C1C[C@@H]2CC[C@@]34C[C@H]5O[C@H]6[C@@H](O3)[C@H]3O[C@H](CC[C@@H]3O[C@H]6[C@H]5O4)CC(=O)C[C@@H]3[C@@H](OC)[C@@H](C[C@H](O)CN)O[C@H]3C[C@H]3O[C@@H](CC[C@@H]1O2)C[C@@H](C)C3=C [ERIBULIN]
Result: 19.8
